Reference source for all entries: PubChem BioAssay (Tox21)

METHOD NOTES: Nuclear factor erythroid 2-related factor 2/antioxidant responsive element (Nrf2/ARE) small molecule agonists: qHTS cell viability counter screen in human keratinocytes (AID 1919968); note: nearly all actives have a fitted effect of over 55% in size
ASSAY SETUP: KeratinoSens HaCaT ARE cells viability, CellTiter-Fluor, 24 h; series mostly up to 92.4 µM
Results filed as inconclusive are left out. Active and inactive are the calls of the source. Calls come from the whole dose curve; as a rule, active = well fitted cell-killing curve with a large enough effect in the repeat runs; inconclusive = weak or mixed curves, or effect the other way; inactive = flat fitted curve, though single readings scatter.
Your reply should match one of these outcome classes. true (1) (active), false (0) (inactive)

Here's what some known entries look like.
O=S(=O)(O)c1cc(O)c2ccc(Nc3ccccc3)cc2c1 :: false (0)
CC=O :: true (1)
c1ccc(-c2nc3ccccc3[nH]2)cc1 :: false (0)
C1COCO1 :: false (0)
CCNC(=O)/C=C/c1cccc(Br)c1 :: false (0)

In the following, a different compound is considered.
Asked: Could you kindly confirm the outcome this assay logged for `CCc1ncc(C)[nH]1` ?
Given back: false (0)
